assay: pKa value was determined.; assay type: physicochemical
Reported metric: pKa

COc1ccc2ccc(S(=O)(=O)NC3CCN(Cc4ccc5nc(N)ccc5c4)C3=O)cc2c1 (stereo not given) = 7.3

[a] COc1ccc2ccc(S(=O)(=O)N[C@H]3CCN(Cc4ccc5ccnc(N)c5c4)C3=O)cc2c1
[b] COc1ccc2ccc(S(=O)(=O)N(C)[C@H]3CCN(Cc4ccc5ncnc(N)c5c4)C3=O)cc2c1
Form: Entry with minimum pKa (choose one): a / b Refer to your chosen entry by its label in the reply.
b
(b: 5.3, a: 7.6)
